system: Vero; assay: Minimum inhibitory concentration required to reduce parainfluenza virus-3 induced cytopathogenicity by 50% in african green monkey (VeroB) cells; type: functional, Human respirovirus 3; conditions: Chlorocebus sabaeus

{"columns": ["compound", "MIC"],
 "data": [
  ["Cn1cc(NC(=O)c2cc([N+](=O)[O-])cn2C)cc1C(=O)NCCC#N", "> 10 µg/mL"],
  ["CC(NC(=O)c1cc(NC(=O)c2cc(NC(=O)CNC(=N)N)cn2C)cn1C)C(=O)OC(C)(C)C (centres undefined)", "> 400 µg/mL"],
  ["Cn1cc([N+](=O)[O-])cc1C(=O)NCCC(=N)N", "> 200 µg/mL"],
  ["CC(NC(=O)c1cc(NC(=O)c2cc([N+](=O)[O-])cn2C)cn1C)C(=O)NC(C)C(=O)OC(C)(C)C (centres undefined)", "> 200 µg/mL"],
  ["Cn1cc(NC(=O)c2cc(NC(=O)CNC(=N)N)cn2C)cc1C(=O)NCCCNCCCCN", "> 200 µg/mL"],
  ["Cn1cc(NC(=O)c2cc(NC(=O)CNC(=N)N)cn2C)cc1C(=O)NCCC(=N)N", "> 400 µg/mL"],
  ["Cn1cc(NC(=O)c2cc([N+](=O)[O-])cn2C)cc1C(=O)NCCCNCCCCN", "> 200 µg/mL"],
  ["NC(=O)c1ncn([C@@H]2O[C@H](CO)[C@@H](O)[C@H]2O)n1", "20 µg/mL"],
  ["COC(=O)c1cc(NC(=O)c2cc([N+](=O)[O-])cn2C)cn1C", "> 10 µg/mL"]
]}
